# System: MALME-3M melanoma
# experiment: NCI-60 one-dose screen, 48 h (100 = growth as untreated, 0 = no growth, -100 = all killed)
# experimental conditions: 10 µM unless noted
Compounds without any hit were thinned out: in the full panel of roughly 83,000, 20% have a hit.
test readout: growth (%)
Answer in %, number only, no unit symbol.

A selection of reference data follows.
{"columns": ["molecule", "test readout", "recorded value"],
 "data": [
  ["COc1ccc(-c2nn(-c3ccccc3)cc2/C=C2/SC(=S)N(C)C2=O)cc1", "growth", 88.4],
  ["S=C1CCSC(=S)N1CCCN1C(=S)CCSC1=S", "growth", 74.2],
  ["CCOC(=O)CNP(=O)(OC[C@@H](Cc1ccccc1)NC(=O)c1cc2ccccc2s1)Oc1ccccc1 (stereo not given in full)", "growth", 69.3],
  ["CC(C)(C)n1cc(-c2ccnc(NCCCNS(=O)(=O)c3ccc(F)cc3)c2)c(-c2cccc(F)c2)n1", "growth", 85.4]
]}

# evaluate next
Lab book: growth of O=C1Nc2ccc(Br)cc2/C1=N/c1n[nH]c(=S)s1 noted as 107

###

# Test system: RPMI-8226 leukemia
# experiment: NCI-60 one-dose screen, 48 h
# experimental conditions: 10 µM unless noted
Compounds without any hit were thinned out: in the full panel of roughly 83,000, 20% have a hit. Active and inactive are the calls of the source. The calls were made as follows: active = growth percent below 10; inactive = the rest.
Reply using exactly one outcome from yes for active, no for inactive

**Query** Hello, I am checking results. What call was entered for C[C@]12C=CC(=O)C=C1CCC1C2[C@@H](O)C[C@@]2(C)C1CC[C@]2(O)C(=O)COC(=O)CCC(=O)O (some centres undefined) ?
**Result** no

**Query** Hello, I am checking results. What call was entered for CCCCNc1ccc(C#N)c(OCCN(CC)CC)c1 ?
**Result** no

**Query** Hello, I am checking results. What call was entered for COC(=O)/C=C1/SC(=Nc2ccc(C)cc2)N(CCc2c[nH]c3ccc(O)cc23)C1=O ?
**Result** yes

**Query** Hello, I am checking results. What call was entered for COc1ccc(-c2nc3c(c(-c4ccccc4)nn3-c3ccccc3)c(-c3ccc(N4CCN(C)CC4)cc3)c2C#N)cc1 ?
**Result** no

**Query** Hello, I am checking results. What call was entered for O=C(Cn1c2c(c3ccccc31)CCCC2)Nc1ccc(-c2nc3ccccc3s2)cc1 ?
**Result** no

**Query** Hello, I am checking results. What call was entered for COc1ccc(-c2nnc3n(C)c(=O)c4ccccc4n23)cc1N ?
**Result** no

**Query** Hello, I am checking results. What call was entered for N#CC1C=CN(CC(N)=O)c2ccc3cccnc3c21 (centres undefined) ?
**Result** no

**Query** Hello, I am checking results. What call was entered for CC1(C)CC2=C3C=C[C@@H]4[C@@]5(C)CCC(=O)C(C)(C)[C@@H]5CC[C@@]4(C)[C@]3(C)CC[C@@]2(C(=O)O)CC1=O ?
**Result** no

**Query** Hello, I am checking results. What call was entered for CCN(CC)CCOc1ccc(C(=C(C)c2ccc(Cl)cc2)c2ccc(OCCN(CC)CC)cc2)cc1 ?
**Result** yes

###

# Test system: SF-295 CNS
# experiment: NCI-60 one-dose screen, 48 h (100 = growth as untreated, 0 = no growth, -100 = all killed)
# experimental conditions: 10 µM unless noted
This is part of a sample that, as a whole, favours compounds with a hit. Of some 83,000 tested, about 20% had one in any assay.
test readout: growth (%)
Answer in %, number only, no unit symbol.

{"columns": ["compound", "display unit", "recorded value"],
 "data": [
  ["N#CC1=C(N)Oc2c(sc3c(Br)cccc23)C1c1ccc(F)cc1 (stereo not given)", "%", 5.32]
]}

GET /values?item= CNC(=O)c1c(NC(=O)c2ccc(C(F)(F)F)cc2)sc2c1CCC(=O)C2 &system= SF-295 CNS returns growth: -9.06

GET /values?item= O=C(Nc1nc2ccc(F)cc2s1)c1cccnc1Nc1ccc(Cl)cc1 &system= SF-295 CNS returns growth: 17.4

GET /values?item= C1=CN2CC(c3ccccc3)=NNC2c2ccccc21 (stereo not given) &system= SF-295 CNS returns growth: 104

GET /values?item= CC(C)=CCC[C@](C)(O)[C@H]1CC[C@]2(C)[C@@H]1CC[C@@H]1[C@@]3(C)Cc4nccnc4C(C)(C)[C@@H]3CC[C@]12C &system= SF-295 CNS returns growth: 95.2

###

# Tested on: SNB-19 CNS
# experiment: NCI-60 one-dose screen, 48 h (100 = growth as untreated, 0 = no growth, -100 = all killed)
# experimental conditions: 10 µM unless noted
The panel holds about 83,000 compounds, 20% with a hit somewhere; the sample as a whole holds those more often.
Catalogue of compounds with associated growth
Answer in %, number only, no unit symbol.

A selection of reference data follows.
{"columns": ["compound", "recorded value"],
 "data": [
  ["O=C(NNC(=O)c1ccc(-n2cc(-c3ccccc3)nn2)cc1)Nc1ccccc1", 90.1],
  ["O=C(c1ccc(-c2ccccc2)cc1)c1ccc([N+](=O)[O-])cc1", 101],
  ["O=[N+]([O-])c1ccc(S(=O)(=O)N2CCN(C3=NS(=O)(=O)c4ccccc4N3c3ccccc3)CC2)cc1", 101],
  ["Clc1ccc2c(c1)N(c1ncnc3ccc(-c4cnc5[nH]ncc5c4)cc13)CC2", 42.8],
  ["COc1ccc(/C=N/C2=C(C#N)C(c3cccc(Cl)c3)c3c(ccc4ccccc34)O2)cc1 (stereo not drawn)", 26.8],
  ["Cc1ccc2c(n1)C(=O)c1[nH]c3ccccc3c1C2=O", 46.9],
  ["CC(C)(C)n1cc(-c2ccnc(NCCNS(=O)(=O)c3cccc4ccccc34)c2)c(-c2cccc(F)c2)n1", 27.5],
  ["CN(Cc1ccc(C(F)(F)F)cc1)CC(O)C(=O)Nc1ccc(Cl)cc1 (stereo not drawn)", 31.4]
]}

Lab book: growth of C#CCOc1ccc2ncnc(Nc3ccc(NC(=O)CCl)cc3)c2c1 noted as -22.2

Lab book: growth of CO[C@H]1/C=C(/C)CCC[C@H](C)[C@H](O)[C@@H](C)C(=O)C(C)(C)[C@@H](O)CC(=O)O[C@@H]1/C(C)=C/c1csc(C)n1 noted as 31.2

Lab book: growth of CCn1c(SCC(=O)c2ccc(Br)cc2)nnc1-c1ccncc1 noted as 99.2

Lab book: growth of C/C(=N\NC(=O)c1ccccc1O)c1cccc(/C(C)=N/NC(=O)c2ccccc2O)n1 noted as 20

Lab book: growth of CSc1nc2sc3c(c2c(=O)n1-c1ccc([N+](=O)[O-])cc1)CCCCC3 noted as 86

Lab book: growth of O=[N+]([O-])c1ccc(-c2nc(N3CCOCC3)c3c4c(sc3n2)CCCC4)cc1 noted as 115

Lab book: growth of O=C(CI)NC1Oc2ccccc2-c2oc(=O)c(-c3ccccc3)cc21 (stereo not drawn) noted as 80.8

Lab book: growth of N#C/C(=C\c1ccc(-c2ccc(Cl)cc2)o1)C(=O)Nc1ncc(Cc2ccc(Cl)cc2)s1 noted as 79.1

Lab book: growth of CN1CCN(C(=O)c2ccc(NC(=O)Nc3ccc(-c4nc(N5CCOCC5)c5cccn5n4)cc3)cc2)CC1 noted as 3.27

Lab book: growth of C=C1C(=O)O[C@H]2[C@H]1CC/C(COC(=O)CSCCSCC(=O)OC/C1=C/CC[C@@]3(C)O[C@H]3[C@H]3OC(=O)C(=C)[C@@H]3CC1)=C\CC[C@@]1(C)O[C@@H]21 noted as 55.9

###

# Test system: UACC-62 melanoma
# experiment: NCI-60 one-dose screen, 48 h
# experimental conditions: 10 µM unless noted
This is part of a sample that, as a whole, favours compounds with a hit. Of some 83,000 tested, about 20% had one in any assay. Activity calls are given as the source filed them. How the source made its calls: active means growth percent below 10; inactive means the rest.
Reply using exactly one outcome from t = active, f = inactive

Worked examples follow.
{"columns": ["molecule", "tested system", "label value"],
 "data": [
  ["COC(=O)c1cc(-c2ccc(OC)cc2)[nH]c1N/N=C/c1c(Cl)cccc1Cl", "UACC-62 melanoma", "f"],
  ["O=C(O)[C@@H]1c2ccccc2-c2ccccc2[C@H]1C(=O)O", "UACC-62 melanoma", "f"],
  ["Cc1ccc(Cc2cnc(NC(=O)c3cc(Br)cs3)s2)cc1", "UACC-62 melanoma", "f"],
  ["CC1=C(CCC(C)N(C)Cc2ccc(OCCCN3CCCC3)cc2)C(C)(C)CCC1 (stereo not given)", "UACC-62 melanoma", "t"],
  ["COc1ccc(N2CCC(=O)NC2=S)cc1", "UACC-62 melanoma", "f"],
  ["COc1cc(CNS(=O)(=O)c2ccc(C)cc2)ccc1OCc1cn(-c2ccc(F)cc2)nn1", "UACC-62 melanoma", "f"]
]}

**Query** Hello, I am checking results. What call was entered for CN(CCOc1ccc(C#N)cc1)CCOc1ccc(C#N)cc1 ?
**Result** f

**Query** Hello, I am checking results. What call was entered for CC1(C)CCC(S(=O)(=O)c2ccc3c(c2)/C(=N\O)c2cc(S(=O)(=O)N4CCC(O)(c5cccc(C(F)(F)F)c5)CC4)ccc2-3)CC1 ?
**Result** t

**Query** Hello, I am checking results. What call was entered for CCO/C=N/C1=C(C#N)C(c2ccc(OC)cc2)c2sc3c(F)cccc3c2O1 (stereo not given) ?
**Result** f

**Query** Hello, I am checking results. What call was entered for O=S(=O)(Nc1ccc(Cl)cc1)c1ccc(-c2cnc(C3CC3)o2)cc1 ?
**Result** f
